Biological target: [3H]-Nitrendipine Binding in Rat Cortical Membranes
Assay: Inhibition of [3H]-Nitrendipine Binding in Rat Cortical Membranes
Details: rat cortex, room temperature, 90 min
value_kind: Ki (µM)
Give your result in µM as a bare value.

COC(=O)C1=C(C)NC(C)=C(C(=O)O[C@H]2CN3CCC2CC3)[C@H]1c1cccc([N+](=O)[O-])c1 [(R,S)-I]    0.056

Shifting focus to the compound that follows.
Please give the measured Ki for this compound: COC(=O)C1=C(C)NC(C)=C(C(=O)O[C@H]2CN3CCC2CC3)[C@@H]1c1cccc([N+](=O)[O-])c1 [(R,R)-I]
0.011
